Tested on: P388 leukemia ip, CD2F1 mice, survival T/C
Assay: NCI In Vivo Anticancer Drug Screen. Data for tumor model P388 Leukemia (intraperitoneal) in CD2F1 (CDF1) mice
Settings: endpoint: median survival time; dose: 240.0 mg/kg/injection; schedule: Q01DX005 (ip); vehicle: saline; higher = longer survival
Protocol: The antitumor activity of compounds was measured in mice bearing transplantable tumors. Survival or tumor size were measured and the results are expressed as the measurement made in the treated group (T) divided by the measurement made in the vehicle treated control group (C). The tumor model used in this assay is P388 Leukemia (intraperitoneal) in CD2F1 (CDF1) mice
Toxic doses and inconclusive results are not listed.
readout.label: T/C

Bench note: what T/C did COc1ccc(C(=O)Cc2nc3nnc(NC(=O)Nc4ccc(Cl)cc4)n3nc2CC(=O)c2ccc(OC)cc2)cc1 show?
95 % of control

Bench note: what T/C did C=CC1C(C[C@@H]2c3cc(O)c(O)cc3CCN2C(C)=O)C(C(=O)OC)=CO[C@H]1OC1OC(CO)C(O)C(O)C1O (some centres not stated) show?
104 % of control

Bench note: what T/C did CN(c1ccccc1)c1c(Cl)c(=O)oc2c1ccc1occc12 show?
103 % of control

Bench note: what T/C did Nc1ncnc2c1ncn2CC(O)CN(CCO)CCO (configuration not stated) (tested in a mixture with another compound) show?
94 % of control

Bench note: what T/C did COc1ccc(/C=N\N2CN(C(CC(N)=O)C(=O)O)C(O)(CCl)N=C2N)cc1OC (configuration not stated) show?
98 % of control

Bench note: what T/C did O=C(N1CCOCC1)C12OC3CC(CC(C3)O1)O2 show?
105 % of control

Bench note: what T/C did CCOC(=O)/C(NC(=O)c1ccccc1)=C(\NC(=O)c1ccccc1)C(=O)OCC show?
96 % of control

Bench note: what T/C did O=Cc1cccc(S(=O)(=O)O)c1 show?
102 % of control

Bench note: what T/C did C=CC(C(=C)C(=O)OC)c1ccccc1 (configuration not stated) show?
103 % of control

Bench note: what T/C did C=CCOC(=O)OCCO show?
99 % of control

Bench note: what T/C did Oc1ccc2c(c1O)/C(=C/C=NCC1(O)OCC(O)C(O)C1O)C=N2 (configuration not stated) show?
101 % of control

Bench note: what T/C did [N-]=[N+]=NCCOCn1ccc(=O)[nH]c1=O show?
100 % of control

====

Would you mind telling me the reported T/C of each entry?
test system: P388 leukemia ip, CD2F1 mice, survival T/C; test: NCI In Vivo Anticancer Drug Screen. Data for tumor model P388 Leukemia (intraperitoneal) in CD2F1 (CDF1) mice; conditions: endpoint: median survival time; dose: 60.0 mg/kg/injection; schedule: Q01DX005 (ip); vehicle: saline with Tween-80; higher = longer survival
Inconclusive results and toxic doses are left out.

Bench note: what T/C did CN1C(c2ccccc2)CC(C)(O)CC1c1ccccc1 (stereo unspecified) show?
97 % of control

Bench note: what T/C did S=c1o[nH]c(-c2ccccc2)c1C=Nc1ccccc1 show?
102 % of control

Bench note: what T/C did COc1ccc(C2C3=C(CC(C)(C)CC3=O)Oc3cc4c(cc32)OCO4)c(OC)c1 (stereo unspecified) show?
99 % of control

Bench note: what T/C did CCCCCCCCCCC(Nc1nncs1)Nc1nncs1 show?
96 % of control

Bench note: what T/C did CC1(C)N=C(Oc2ccc(Cl)cc2Cl)NC(=S)N1 show?
95 % of control

Bench note: what T/C did CSc1nc2c(=O)[nH]cnc2s1 show?
105 % of control

====

tested on: P388 leukemia ip, CD2F1 mice, survival T/C; experiment: NCI In Vivo Anticancer Drug Screen. Data for tumor model P388 Leukemia (intraperitoneal) in CD2F1 (CDF1) mice; settings: endpoint: median survival time; dose: 12.5 mg/kg/injection; schedule: Q01DX009 (ip); vehicle: saline with Tween-80
Toxic doses and inconclusive results are not listed. The calls were made as follows: active = survival T/C of 150% or more; inactive = T/C below 125% in these data.
Mark one answer only. Choices: active, inactive

For Cc1cc(N(CCCl)CCCl)ccc1CN1CCCN(Cc2ccc(N(CCCl)CCCl)cc2C)C1c1ccccc1O , what call appears in the results of this test?
inactive

For NNc1nc2ccccc2s1 , what call appears in the results of this test?
inactive

For [Cl][Hg][c]1ccccc1N=Nc1ccccc1I , what call appears in the results of this test?
inactive

For S=C1Nc2ccccc2C2CC=NN12 (configuration not stated) , what call appears in the results of this test?
inactive

For O=C1c2c(Cl)c(Cl)c(Cl)c(Cl)c2C(=O)N1O , what call appears in the results of this test?
inactive

For COc1ccc(Cl)cc1NC(=O)Oc1ccncc1 , what call appears in the results of this test?
inactive

For O=C(C=C(C(F)(F)F)C(F)(F)F)c1ccccc1Cl , what call appears in the results of this test?
active

====

tested on: P388 leukemia ip, CD2F1 mice, survival T/C; assay: NCI In Vivo Anticancer Drug Screen. Data for tumor model P388 Leukemia (intraperitoneal) in CD2F1 (CDF1) mice; conditions: endpoint: median survival time; dose: 200.0 mg/kg/injection; schedule: Q01DX005 (ip); vehicle: saline with Tween-80; higher = longer survival
Toxic doses and inconclusive results are not listed.
Would you mind telling me the reported T/C of each entry?

Bench note: what T/C did CCOC(=O)C(NC(=O)C(Cl)Cl)C(O)c1ccccc1 (configuration not stated) show?
89 % of control

Bench note: what T/C did COCCn1nc(-c2ccc(Cl)cc2)c(-c2ccc(Cl)cc2)c(C(C)=O)c1=O show?
93 % of control

Bench note: what T/C did CNC(=S)SSC(=S)NCCNC(=S)SSC(=S)NC show?
101 % of control

Bench note: what T/C did COC(=O)c1c(OC)cc2c(Cl)c3c(c(O)c2c1C)C(=O)[C@@]1(O)C(=O)C=C(OC)[C@H](O)[C@@]1(O)C3=O show?
110 % of control

Bench note: what T/C did NCCCCCCCC(=O)NCCCCCCCC(=O)NCCCCCCCC(=O)NCCCCCCCC(=O)NN show?
91 % of control

Bench note: what T/C did CC(O)c1nc2c3ccccc3ccc2n1C (configuration not stated) show?
92 % of control

Bench note: what T/C did Cc1c(-c2cnccn2)ssc1=S show?
103 % of control

Bench note: what T/C did O=C1Nc2c(Cl)cc(Cl)cc2/C1=N/N=C/c1ccco1 show?
104 % of control

Bench note: what T/C did COc1cc2c(cc1OC)C(C)N(C)c1c-2c(OC(C)=O)cc2cc(OC)c(OC)cc12 (configuration not stated) show?
92 % of control

Bench note: what T/C did Cc1nc(N)c2c3c(sc2n1)CCCC3 show?
100 % of control

Bench note: what T/C did C=CCOc1cc2c(cc1C/C=C/c1ccccc1)OCO2 show?
109 % of control

Bench note: what T/C did C/C(=N\NC(=S)Nc1cccc2cccc(S(=O)(=O)O)c12)c1ccccn1 show?
112 % of control

Bench note: what T/C did COc1ccc2c(c1)CN(CCc1ccc([N+](=O)[O-])cc1)CO2 show?
96 % of control

Bench note: what T/C did COCCN1C(N)=C(C#N)C=C2CCCC(N=C(C#N)C#N)=C21 show?
102 % of control

Bench note: what T/C did COc1cc2c(cc1C(C)c1cc(C(C)(C)C)c(O)c(C(C)(C)C)c1)OCO2 (configuration not stated) show?
94 % of control

Bench note: what T/C did CC(NC(=O)C1CCCN1C(=O)OCc1ccccc1)C(=O)O (configuration not stated) show?
100 % of control

Bench note: what T/C did CCOC(=O)C1=C(C)NC(CO)=C(C(=O)OCC)C1c1cccc([N+](=O)[O-])c1 (configuration not stated) show?
92 % of control

Bench note: what T/C did COC(=O)c1ccc(COc2ccc([N+](=O)[O-])cc2Cl)cc1 show?
104 % of control

Bench note: what T/C did CCCCN(CCCC)/N=N\N(CCCC)CCCC show?
105 % of control

Bench note: what T/C did CSc1nc(N)c2cnn(C3OC(CO)C(O)C3O)c2n1 (configuration not stated) show?
100 % of control

Bench note: what T/C did CC1(C)Cc2nc3ccccc3nc2-c2ccccc21 show?
100 % of control

Bench note: what T/C did Oc1cc(Cl)c(O)c(-c2ccccc2)c1Cl show?
90 % of control

Bench note: what T/C did COc1cc(Cc2cnc(N)nc2N)cc(OC)c1OC show?
100 % of control

Bench note: what T/C did COc1ccc2c(c1[N+](=O)[O-])CC[C@@H]1[C@@H]2CC[C@]2(C)C(=O)CC[C@@H]12 show?
86 % of control

Bench note: what T/C did CC(C)CC(NCc1ccccc1)C(=O)O (configuration not stated) show?
95 % of control

Bench note: what T/C did CC1NC(=O)N(C(C)(C)C)C1=O (configuration not stated) show?
120 % of control

Bench note: what T/C did CC1CCCN2C(=O)CN(Cc3ccccc3)CC(=O)N12 (configuration not stated) show?
100 % of control

Bench note: what T/C did CN(C)C1C(=O)C(C(N)=O)=C(O)C2(O)C(=O)C3=C(O)c4c(O)cccc4C(C)(O)C3CC12.O.O.O.[Al] (configuration not stated) show?
99 % of control

Bench note: what T/C did CCOC(=O)N1c2ccccc2OC1C#N (configuration not stated) show?
113 % of control

Bench note: what T/C did NC(=S)N/N=C\C(CC(O)C(O)CO)=N\NC(N)=S (configuration not stated) show?
98 % of control

Bench note: what T/C did NCC1CCC(C(=O)O)CC1 (configuration not stated) show?
100 % of control

Bench note: what T/C did CC1(C)OC2(C)CCC1C1C2N1C(=O)C1CC1 (configuration not stated) show?
105 % of control

Bench note: what T/C did CCCCN(CC)CC(CC)Nc1cc(OC)cc2cccnc12 (configuration not stated) show?
101 % of control

Bench note: what T/C did CCC1C=Cc2ccccc2NC1 (configuration not stated) show?
98 % of control

Bench note: what T/C did CCNc1cc(N)[n+](CC)c2n[nH]c(/N=C/c3cc(Cl)cc(Cl)c3O)c12 show?
93 % of control

Bench note: what T/C did COc1ccc2c(c1)OC(C)(C)C(c1ccccc1)=C2c1ccc2c(c1)NC(=O)CO2 show?
94 % of control

Bench note: what T/C did C=CCOC(=O)C(NC(=O)OCCCC)NC(=O)OCCCC show?
98 % of control

Bench note: what T/C did CC(C)CN=C1NS(=O)(=O)c2ccccc21 show?
101 % of control

Bench note: what T/C did CCOc1ccc(Nc2ncnc3sc4c(c23)CCCC4)cc1 show?
109 % of control

Bench note: what T/C did O[C@]12C=C[C@H](CCCC1)O2 show?
111 % of control

Bench note: what T/C did N=c1c2ncn(C3OC(CO)C(O)C3O)c2ncn1O (configuration not stated) show?
108 % of control

Bench note: what T/C did COc1ccc(C2c3cc4c(cc3OC(C)(OC)C2C)OCO4)c(OC)c1 (configuration not stated) show?
91 % of control

Bench note: what T/C did CC1(C)SC(C)(C)N2C(=O)[C@H]3N(C(=O)[C@@H]21)C(C)(C)SC3(C)C show?
97 % of control

Bench note: what T/C did COc1ccc(C)cc1NC(=O)Sc1ccc(Cl)cc1 show?
106 % of control

Bench note: what T/C did CCC(c1ccc(O)cc1)c1cc2c(cc1OCC(=O)O)OCO2 (configuration not stated) show?
99 % of control

Bench note: what T/C did COc1ccccc1NC(=O)CC(=O)N1N=C(C)C(N=Nc2ccc(I)cc2)C1=O (configuration not stated) show?
92 % of control

Bench note: what T/C did CCCCCCCCCC(=O)C1C(c2ccccc2)CC(=O)C(CCCCCCCC)C1c1ccccc1 (configuration not stated) show?
115 % of control
